system: Plasmodium falciparum; assay: GSK_TCMDC: Inhibition of Plasmodium falciparum 3D7 in whole red blood cells, using parasite LDH activity as an index of growth. Test compounds present at 2uM; type: functional
Reported values of Inhibition for individual entries
Readout: Inhibition (%)

1) N#Cc1cccc(NC(=O)Nc2cccc(OC3CCN(Cc4ccccc4)CC3)c2)c1.O=C(O)C(F)(F)F : 100
2) CN(CCCCNC(=O)c1ccc(-c2ccccc2)cc1)C1CCc2c(O)cccc2C1.O=C(O)C(=O)O (centres undefined) : 100
3) COCCCNc1sc(S(=O)(=O)c2ccccc2)nc1S(=O)(=O)c1ccc(C)cc1 : 84
4) Fc1ccc(C(OCC2CCCN(Cc3cccc4cccnc34)C2)c2ccc(F)cc2)cc1 (centres undefined) : 98
5) O=C(NCc1ccccc1)Nc1ccc(-c2cccc(-c3nc4cc(C(F)(F)F)ccc4[nH]3)c2)cc1 : 97
6) O=C(Nc1cccc(CN2CCCN(Cc3ccc4c(c3)OCO4)CC2)c1)c1ccc2ccccc2c1.O=C(O)C(F)(F)F : 86
7) COc1ccc(CCC(C)(C)NCC(O)c2cccc(C(F)(F)F)c2)cc1 (centres undefined) : 99
8) O=C(/C=C/c1ccc(Cl)c(Cl)c1)NCC1CCN(Cc2ccc(O)cc2)CC1.O=C(O)C(F)(F)F : 98
9) CCCCNCC(O)COc1ccccc1-c1ccc(N/N=C/c2cccc3ccccc23)nn1 (centres undefined) : 99
10) O=C(Nc1ccc(OC2CCN(Cc3ccccc3)C2)c(Cl)c1)c1ccc(F)cc1.O=C(O)C(F)(F)F (centres undefined) : 90
11) CN1CCCc2cc(NC(=O)c3cc(-c4ccc(Cl)cc4)cs3)ccc2C1.O=C(O)C(F)(F)F : 100
12) CC(C)Cc1nc(N2CCOCC2)c2nnn(Cc3ccccc3)c2n1 : 98
13) Cl.Nc1c(I)cc(C(=O)Nc2ccc3nc4c(c(N)c3c2)CCCC4)cc1I : 100
14) O=C(Nc1ccccc1Br)c1cn(-c2ccccc2)nc1-c1cccc([N+](=O)[O-])c1 : 92
15) O=C(O)C(F)(F)F.O=c1cc(N2CCNCC2)c(Cl)nn1Cc1ccc(NS(=O)(=O)c2ccc(Oc3ccccc3)cc2)cc1 : 100
16) CN1CCC(c2c[nH]c3ccc(NC(=O)Nc4ccc(-c5ccncc5)cc4Cl)cc23)CC1 : 100
17) CCOc1ccc(Cc2c(C)nc3nc(N)nc(N)c3c2C)cc1.Cl : 91
18) CC(C)(C)CNc1noc(-c2sccc2Br)n1 : 82
19) CC(C)CCNC(=O)C1Cc2c([nH]c3ccc(Br)cc23)C2(CCN(Cc3ccccc3)CC2)N1 (centres undefined) : 96
